# AC50 per entry for Cytochrome P450 2D6 (Homo sapiens, UniProt P10635)

CN(C)c1ccc2nc3c(C(=O)O)cc(=O)c(O)c-3oc2c1: 3.16 µM (inconclusive)
O=C(CN1CCN(S(=O)(=O)c2ccc(F)cc2)CC1)Nc1ccc(Cl)c(C(F)(F)F)c1: 39.8 µM (inconclusive)
CCNC(=O)c1ccc(-n2nc(C(F)(F)F)c3c2CCCC3)cc1: 8.91 µM (inconclusive)
Cn1nccc1C(=O)Nc1ccc(Cl)cc1: 0.282 µM (inconclusive)
CN1CCN(NC(=O)c2cccc(F)c2)CC1: 39.8 µM (inconclusive)
Cc1noc(C)c1-c1nc(Nc2ccncc2)c2ccccc2n1: 12.6 µM (inconclusive)
COc1cccc(-c2ccc3ncnc(NCc4ccc(OC)cc4OC)c3c2)c1: 20 µM (inconclusive)
Cc1cccc(-n2nnc(C(=O)NC3CCCc4ccccc43)c2N)c1 (stereo not given): 7.94 µM (inconclusive)

What value of AC50 has been recorded for this entry: `N=c1c(C(=O)NC2CCCC2)cc2c(=O)n3ccccc3nc2n1C1CCCC1` 3.55 µM (inconclusive)

Also check `CN1CCN(c2cc(N3CCCC3)c([N+](=O)[O-])cc2F)CC1` 14.1 µM (inconclusive)
